Could you please report measured fraction ligated for the items listed next?
B1: F1*; the commonest letter at each place (parent)
chain: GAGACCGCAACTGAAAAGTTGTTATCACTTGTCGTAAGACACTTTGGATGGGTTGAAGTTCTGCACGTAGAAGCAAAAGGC

# Variants of: B1
# Experiment description: fraction ligated after 30 min (ligated reads / total reads); higher = more ligase activity
# Condition description: with F1*sub RNA substrate (template-directed ligation), 42 °C

Completed entries (count: 8):
Variant descriptor	Recorded value
G31T T45C	0.116
A24G T45C	0.0441
A27T A36C	0.868
T44A A48T	0.82
C28T G50C	0.323
C28G T35G	0.759
A27T G38A	0.811
C28G C33G	0.505

Hi team, please reply with fraction ligated for each item in this list.
1. A39T C40G
2. T23G C28G
3. A36C G50C
4. G31A G38A
5. A36T T45G
6. T35C A41G
7. T44G T49G
8. A41T T49C

Ans.
[0.808, 0.791, 0.454, 0.796, 0.385, 0.783, 0.714, 0.658]

// each variant listed below needs its fraction ligated
1. C33A A36C
2. A39C T44G
3. T32C A41C
4. A48T G50T

Ans.
1: 0.844; 2: 0.801; 3: 0.755; 4: 0.392
